CRF2R Emax % reference
Target: T1, corticotropin releasing factor 2 receptor
T1 sequence (Q13324 whole entry, species assumed, looked up): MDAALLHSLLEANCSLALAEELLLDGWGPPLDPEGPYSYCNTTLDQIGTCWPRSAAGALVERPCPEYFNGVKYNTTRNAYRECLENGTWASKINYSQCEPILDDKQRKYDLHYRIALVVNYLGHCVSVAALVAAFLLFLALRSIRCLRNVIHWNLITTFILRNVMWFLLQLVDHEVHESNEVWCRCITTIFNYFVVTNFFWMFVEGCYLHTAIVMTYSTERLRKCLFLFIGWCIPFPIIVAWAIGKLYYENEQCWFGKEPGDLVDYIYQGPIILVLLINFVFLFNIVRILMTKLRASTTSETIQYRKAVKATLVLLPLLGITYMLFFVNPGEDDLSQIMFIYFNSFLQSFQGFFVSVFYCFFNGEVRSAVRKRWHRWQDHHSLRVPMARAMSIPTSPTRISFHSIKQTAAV
Experiment: cell-based or functional assay
Ends that are not written are not given here.
outcome measure: CRF2R Emax %

ZGPPISIDLPIFLLRKVIEIEKQEKEKQQAANNARLLARI (C-terminal amide) [SEQ ID NO 281]: 78.8%
NDDPPISIDLPLFLLRNMIEMARIENEREQAGLNAKYLAEV-NH2 [SEQ ID NO 257]: 72.6%
IVLSLDVPIGLLQKVIEIEKQEKEKQQATTNARILARV-NH2 [SEQ ID NO 300]: 100%
ZGPPISIDLPFFLLRKMIEIEKQEKEKQQAANNALLLDTI (C-terminal amide) [SEQ ID NO 318]: 95.4%
ZGPPISIDLPIALLRKMIEIEKQEKEKQQAANNRLLLDTI (not fully specified; C-terminal amide) [SEQ ID NO 306]: 100%
